TEST_METHOD_NOTES: Biodistribution of 177Lu-labeled αMSH analogues in mice bearing SK-MEL-1 human melanoma
EXPERIMENTAL_PARAMETERS: male, NRG (NOD.Cg-Rag1tm1Mom Il2rgtm1Wjl/SzJ), mouse, tumour/blood, total radioactivity, 24 h p.i., NRG mice, SK-MEL-1 melanoma
QUANTITY_KIND: tissue to tissue ratio at 24 h
API note: the answer field is a bare number with no unit suffix.

[[record]]
compound = "CCCC[C@H](NC(=O)CN1CCC(NC(=O)[C@H](CCCCNC(=O)CN2CCN(CC(=O)O)CCN(CC(=O)O)CCN(CC(=O)O)CC2)NC(=O)CNC(=O)CCCc2ccc(I)cc2)CC1)C(=O)N[C@H]1CC(=O)NCCCC[C@@H](C(N)=O)N(C)C(=O)[C@H](Cc2c[nH]c3ccccc23)NC(=O)[C@H](CCCNC(=N)N)N(C)C(=O)[C@@H](Cc2ccccc2)NC(=O)[C@H](Cc2c[nH]cn2)NC1=O [^177Lu-labeled CCZ01148, metal not drawn]"
result = 2.08


# ---- query compound ----
Looking up CCCC[C@H](NC(=O)CN1CCC(NC(=O)[C@H](CCCCNC(=O)CN2CCN(CC(=O)O)CCN(CC(=O)O)CCN(CC(=O)O)CC2)NC(=O)[C@H](CCC(=O)O)NC(=O)CCCc2ccc(I)cc2)CC1)C(=O)N[C@H]1CC(=O)NCCCC[C@@H](C(N)=O)N(C)C(=O)[C@H](Cc2c[nH]c3ccccc23)NC(=O)[C@H](CCCNC(=N)N)N(C)C(=O)[C@@H](Cc2ccccc2)NC(=O)[C@H](Cc2c[nH]cn2)NC1=O [^177Lu-labeled CCZ01118, metal not drawn] , I found its tissue to tissue ratio at 24 h recorded as 165
